Exercise: for every item that follows, state its recorded z-score of subpopulation abundance.
# Tested on: Saccharomyces cerevisiae BY4741 SeMeCo community
# Test method notes: z-score of subpopulation abundance vs DMSO median, subpopulation auxotrophic for LM; higher = larger share of this subpopulation than in DMSO controls
# Study conditions: 10 µM; 24 h; SM minimal medium; subpopulation (auxotrophy): LM
Structures can show the parent of a compound that is named as a salt.
Just the number, please, no unit after it.

input: Please look at O=C(NCCO[N+](=O)[O-])c1cccnc1 [Nicorandil] and tell me its recorded z-score of subpopulation abundance on Saccharomyces cerevisiae BY4741 SeMeCo community.
output: -0.01

input: Please look at CCN1CCN(c2cc3c(cc2F)c(=O)c(C(=O)O)cn3C2CC2)CC1 [Enrofloxacin] and tell me its recorded z-score of subpopulation abundance on Saccharomyces cerevisiae BY4741 SeMeCo community.
output: 0.01

input: Please look at C[C@]12CC[C@@H]3c4ccc(O)cc4CC[C@H]3[C@@H]1CC[C@@H]2OC(=O)CCC1CCCC1 [Estradiol Cypionate] and tell me its recorded z-score of subpopulation abundance on Saccharomyces cerevisiae BY4741 SeMeCo community.
output: -0.12

input: Please look at Cc1ccc(O)c([C@H](CCN(C(C)C)C(C)C)c2ccccc2)c1 [Tolterodine tartrate] and tell me its recorded z-score of subpopulation abundance on Saccharomyces cerevisiae BY4741 SeMeCo community.
output: 1.32

input: Please look at CC[N+](CC)(CC)CC [Tetraethylammonium bromide] and tell me its recorded z-score of subpopulation abundance on Saccharomyces cerevisiae BY4741 SeMeCo community.
output: 0.41

input: Please look at COc1ccc(C2CNC(=O)C2)cc1OC1CCCC1 (stereo not drawn) [S- (+)-Rolipram] and tell me its recorded z-score of subpopulation abundance on Saccharomyces cerevisiae BY4741 SeMeCo community.
output: -0.87

input: Please look at COc1cccc2c1C(=O)c1c(O)c3c(c(O)c1C2=O)C[C@@](O)(C(=O)CO)C[C@@H]3O[C@H]1C[C@H](N)[C@H](O[C@@H]2CCCCO2)[C@H](C)O1 [Pirarubicin] and tell me its recorded z-score of subpopulation abundance on Saccharomyces cerevisiae BY4741 SeMeCo community.
output: -3.84

input: Please look at Cn1c(=O)c2c(ncn2CC2OCCO2)n(C)c1=O [Doxofylline] and tell me its recorded z-score of subpopulation abundance on Saccharomyces cerevisiae BY4741 SeMeCo community.
output: 0.49
